Assign BMPRIb binding (relative to wild type = 1.0) to each entry below.
# System Tested: T1, BMPRIb receptor-Fc fusion (UniProt O00238 14-126)
# T1 construct: BMP receptor-Fc fusion used at 5 ug/mL; also called ALK-6
# T1 sequence (looked up): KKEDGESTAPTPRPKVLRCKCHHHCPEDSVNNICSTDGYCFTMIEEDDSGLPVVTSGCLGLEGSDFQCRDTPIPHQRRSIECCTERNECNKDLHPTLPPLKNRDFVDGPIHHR
# Test Summary: ELISA-like plate assay, captured BMP-7 from conditioned media, receptor-Fc detection

Consider the following illustrative entries.
// query BMPRIb binding (relative to wild type = 1.0) value for entry BMP-7 variant F73E (ligand, In conditioned media; numbering on mature BMP-7) STGGKQRSQNRSKTPKNQEALRMASVAENSSSDQRQACKKHELYVSFRDLGWQDWIIAPEGYAAYYCEGECAEPLNSYMNATNHAIVQTLVHFINPETVPKPCCAPTQLNAISVLYFDDSSNVILKKYRNMVVRACGCH
1.23 relative to wild type

Proceed to BMP-7 variant F73Q (ligand, In conditioned media; numbering on mature BMP-7) STGGKQRSQNRSKTPKNQEALRMASVAENSSSDQRQACKKHELYVSFRDLGWQDWIIAPEGYAAYYCEGECAQPLNSYMNATNHAIVQTLVHFINPETVPKPCCAPTQLNAISVLYFDDSSNVILKKYRNMVVRACGCH
1.71 relative to wild type

Proceed to BMP-7 variant L21G (ligand, In conditioned media; numbering on mature BMP-7) STGGKQRSQNRSKTPKNQEAGRMASVAENSSSDQRQACKKHELYVSFRDLGWQDWIIAPEGYAAYYCEGECAFPLNSYMNATNHAIVQTLVHFINPETVPKPCCAPTQLNAISVLYFDDSSNVILKKYRNMVVRACGCH
3.65 relative to wild type

Proceed to BMP-7 variant I94Q (ligand, In conditioned media; numbering on mature BMP-7) STGGKQRSQNRSKTPKNQEALRMASVAENSSSDQRQACKKHELYVSFRDLGWQDWIIAPEGYAAYYCEGECAFPLNSYMNATNHAIVQTLVHFQNPETVPKPCCAPTQLNAISVLYFDDSSNVILKKYRNMVVRACGCH
0.74 relative to wild type

Proceed to BMP-7 variant Y78P (ligand, In conditioned media; numbering on mature BMP-7) STGGKQRSQNRSKTPKNQEALRMASVAENSSSDQRQACKKHELYVSFRDLGWQDWIIAPEGYAAYYCEGECAFPLNSPMNATNHAIVQTLVHFINPETVPKPCCAPTQLNAISVLYFDDSSNVILKKYRNMVVRACGCH
0.69 relative to wild type

Proceed to BMP-7 variant Y128K (ligand, In conditioned media; numbering on mature BMP-7) STGGKQRSQNRSKTPKNQEALRMASVAENSSSDQRQACKKHELYVSFRDLGWQDWIIAPEGYAAYYCEGECAFPLNSYMNATNHAIVQTLVHFINPETVPKPCCAPTQLNAISVLYFDDSSNVILKKKRNMVVRACGCH
1.57 relative to wild type

Now look at this one.
// query BMPRIb binding (relative to wild type = 1.0) value for entry BMP-7 variant L21D (ligand, In conditioned media; numbering on mature BMP-7) STGGKQRSQNRSKTPKNQEADRMASVAENSSSDQRQACKKHELYVSFRDLGWQDWIIAPEGYAAYYCEGECAFPLNSYMNATNHAIVQTLVHFINPETVPKPCCAPTQLNAISVLYFDDSSNVILKKYRNMVVRACGCH
1.52 relative to wild type
